Reference for the values: patent US20240140931A1

Target: Human full-length SHP2 recombinant protein (Homo sapiens (Human), UniProt Q06124)
Test: Assay of full-length SHP2 phosphatase activity
Details: DiFMUP substrate, with activating peptide
pIC50: −log10 of the molar value.
QUANTITY_MEASURED: pIC50

MOLECULE	QUANTITY_MEASURED	OBSERVED_RESULT
Cc1nc(N2CCC3(CC2)Cc2ccc(C#CC(N)=O)cc2[C@H]3N)cnc1Sc1cc(N)nc(Cl)c1Cl	pIC50	7.96
CNC(=O)C#Cc1ccc2c(c1)[C@@H](N)C1(CCN(c3nc(N)c(Sc4ccnc(OC)c4Cl)nc3C)CC1)C2	pIC50	8.30
Cc1nc(N2CCC3(CC2)Cc2ccc(C#CCN(C)C)cc2[C@H]3N)cc(=O)n1-c1cc(Cl)ccc1Cl	pIC50	7.17

I. COCC#Cc1cc(F)c2c(c1)[C@@H](N)C1(CCN(c3cc(=O)n(-c4cccc(Cl)c4Cl)c(C)n3)CC1)C2
II. C#Cc1ccc2c(c1)[C@@H](N)C1(CCN(c3cc(=O)n(-c4cccc(F)c4Cl)c(C)n3)CC1)C2
III. CNC(=O)C#Cc1ccc2c(c1)[C@@H](N)C1(CCN(c3nc(C)c(Sc4ccnc(N)c4Cl)nc3CO)CC1)C2
Exercise: Place the items in sequence of falling pIC50. Your answer should be the labels, listed in the requested order.
Solution: III, II, I

A. C#Cc1ccc2c(c1)[C@@H](N)C1(CCN(c3cc(=O)n(-c4cc(Cl)ccc4Cl)c(C)n3)CC1)C2
B. C#Cc1ccc2c(c1)[C@@H](N)C1(CCN(c3cc(=O)n(-c4ccc(F)c(F)c4Cl)c(C)n3)CC1)C2 (atropisomer, axis not shown) [Compound 113]
Exercise: Returns: the argument ( A or B ) having the larger pIC50. Answer with the label corresponding to your selection.
Solution: B
(B: 8.70, A: 6.60)

1. C#Cc1cccc2c1CC1(CCN(c3cc(=O)n(-c4cccc(Cl)c4Cl)c(C)n3)CC1)[C@@H]2N
2. C#Cc1ccc2c(c1)[C@@H](N)C1(CCN(c3nc(C)n(-c4ccc(F)cc4Cl)c(=O)c3C)CC1)C2 (atropisomer, axis not shown) [Compound 102]
Exercise: Returns: the argument ( 1 or 2 ) having the larger pIC50. Answer with the label corresponding to your selection.
Solution: 2
(2: 8.70, 1: 8.40)

A. C#Cc1ccc2c(c1)[C@@H](N)C1(CCN(c3cc(=O)n(-c4ccc(C#N)c(OC)c4Cl)c(C)n3)CC1)C2 (atropisomer, axis not shown) [Compound 191]
B. CNC(=O)C#Cc1ccc2c(c1)[C@@H](N)C1(CCN(c3cnc(Sc4ccnc(N)c4F)c(N)n3)CC1)C2
C. C#Cc1ccc2c(c1)[C@@H](N)C1(CCN(c3cc(=O)n(-c4cccc(OCC)c4Cl)c(C)n3)CC1)C2
Exercise: Write the entries in order, lowest recorded pIC50 first. Your answer should be the labels, listed in the requested order.
Solution: C, A, B

----------
Target: Human full-length SHP2 recombinant protein (Homo sapiens (Human))
Test: Assay of full-length SHP2 phosphatase activity
Format: biochemical
Conditions: DiFMUP substrate, with activating peptide
QUANTITY_MEASURED: IC50 (nM)

STRUCTURE_AS_SMILES	IC50 / nM
CC#Cc1ccc2c(c1)[C@@H](N)C1(CCN(c3cnc(Sc4ccnc(N)c4Cl)nn3)CC1)C2	2.8

a. COCC#Cc1ccc2c(c1)[C@@H](N)C1(CCN(c3cc(=O)n(-c4cccc(Cl)c4Cl)c(C)n3)CC1)C2
b. C#Cc1ccc2c(c1)[C@@H](N)C1(CCN(c3cc(=O)n(-c4ccc(C#N)c(O)c4F)c(C)n3)CC1)C2
c. Cc1nc(N2CCC3(CC2)Cc2ccc(C#CC(=O)N(C)C)cc2[C@H]3N)cc(=O)n1-c1cccc(Cl)c1Cl
Exercise: Place the items in sequence of falling IC50. Your answer should be the labels, listed in the requested order.
Solution: b, a, c
(b: 14 nM, a: 2 nM, c: 1 nM)
